The reported numbers originate from ChEMBL document CHEMBL4296182.

Consider the following compounds; for each one, report its Inhibition.
Tested on: Escherichia coli
Test: Antibacterial activity against Escherichia coli ATCC 25922 (CO-ADD:GN_001); MIC in CAMBH media using NBS plates, by Resazurin F(560/590)
Format: functional
Conditions: Concentration 20 uM, ASSAY_TEST Inhibition of Bacterial Growth, detection method Resazurin, Fluorescence (ex560/em590), MEDIA CAMHB, plate type 384well, CORNING #3640, time 18 hr
The figure you give is taken to be in %; do not add the unit.

The measured Inhibition associated with `O=C(Nc1cc(-c2ccccc2)[nH]n1)c1ccc(Cl)cc1` reads 6.31

Value of Inhibition reported for the compound `c1ccc(Nc2cccc3c(Nc4ccccc4)cccc23)cc1` is 9.5

Inhibition measured on `Nc1cc(-c2ccccc2)ccc1O` = 6.67

Please fill in: Inhibition reported for `C[C@@H]1C[C@H]2OC(=O)[C@@]3(C)CCC[C@@](C)([C@@H]23)[C@@]1(O)CCc1ccoc1` = -14.05

Documented Inhibition of `O=C(CC1(O)CCCCC1)OC1CCCC1` : -15.82

For record `CCCNC(=O)Nc1ccc(C)cc1C` the listed Inhibition is -6.23

Inhibition reported for this compound `O=C(Nc1ccc(Cl)cc1)c1cc2c(cc1O)[nH]c1ccccc12` : 2.48

Noted for `CCOC(=O)c1cc(-c2cccnc2)nc2c(Cl)cc(Cl)cc12` : its Inhibition reads 5.86

Record `Cc1cc(NC(=O)c2ccccc2)nc(C)n1` . Reported Inhibition: 12.79

Please fill in: Inhibition reported for `OCc1cc(O)c(CO)nn1` = -7.33

Reported Inhibition ( `CCCCOC(=O)c1cccnc1` ) = 12.49

Given item `CCOC(=O)/C(=N\O)C1=CSC2=NNC(C)(C)N12` , the value recorded as its Inhibition is 6.92

The compound `Clc1cc2c(nn1)Nc1ccccc1S2` showed Inhibition equal to 10.31

Form field Inhibition, entry `Oc1ccccc1-c1nc2c3ccccc3c3ccccc3c2[nH]1` : 3.46

Entry `CCOC(=O)c1nc(O)c2c3c(sc2n1)CCCC3` — recorded Inhibition = 15.58

Just so you know, measured Inhibition for `Clc1ccc(Oc2nc3c(Cl)cccc3s2)cc1Cl` came out at 4.52

Record summary for `CCOC(=O)c1[nH]c(C(=O)O)c(OC(=O)CC)c1C` : reported Inhibition = 5.33

Sure, the documented Inhibition for `COc1ccc(C(C)=O)cc1CO/N=C1\CSCc2ccccc21` is 4.94

Given item `COc1ccc(OC)c(NC(=O)c2cc3oc4ccccc4c3cc2O)c1` , the value recorded as its Inhibition is 5.92

Documented Inhibition of `O=C(O)CCN1c2ccccc2Sc2ccccc21` : 16.66

Item: `CCOC(=O)c1c[nH]nc1O` | Inhibition: -2.97

Measured Inhibition of `Nc1ccc(NC(=O)c2ccc(C(=O)Nc3ccc(N)cc3)cc2)cc1` : 15.83

// field: Inhibition; key: `COC(=O)c1cncc(C)c1` ; value = 14.23

Inhibition reading for `C#Cc1cccc(NC(=O)c2ccc(Cl)cc2Cl)c1` : 7.38

According to the records, this compound `Cc1cc(OCCCCOc2ccc(C#N)cc2)ccc1[N+](=O)[O-]` displays Inhibition of 2.94

Inhibition in this record for `CCOc1ccc(NC(=O)c2cc3ccccc3cc2O)cc1` : -2.29
